Please go through the items and note down their vesicle binding response.
Test: inhibitors of CD8+ T cell-vesicle binding, pilot screen, LFA-1/ICAM-1 modulator project, MLPCN validation set, flow cytometry (AID 2523);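 further: mean PE anti-B7-1 fluorescence of CD8+ cells relative to row control; 100% = QL9-loaded vesicles with DMSO vehicle in the same plate row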
Conditions: 2C mouse CD8+ T cells, at 7 µM, active compounds read low
# output: bare number, implied unit %

// query Look up vesicle binding response of CC12CCC3C(CC=C4CC(O)CCC43C)C1C/C(=C\c1cccc(F)c1)C2=O (configuration not stated) and report it.
// result 171

// query Look up vesicle binding response of Cc1c2ccncc2c(C)c2c1[nH]c1ccccc12 and report it.
// result 710

// query Look up vesicle binding response of C[C@]12CCC(=O)C=C1CC[C@@H]1[C@@H]2CC[C@]2(C)C(=O)CC[C@@H]12 and report it.
// result 210

// query Look up vesicle binding response of C[C@H]1CCC/C=C/C2C[C@H](O)CC2[C@H](O)/C=C/C(=O)O1 (some centres not stated) and report it.
// result 166

// query Look up vesicle binding response of [N-]=[N+]=CC(=O)OC[C@H](N)C(=O)O and report it.
// result 133

// query Look up vesicle binding response of Cc1cc(Cl)ccc1OC(C)C(=O)O (configuration not stated) and report it.
// result 208

// query Look up vesicle binding response of COc1cccc(Oc2c(C)oc3cc(OC(=O)N(C)C)ccc3c2=O)c1 and report it.
// result 148

// query Look up vesicle binding response of CCCC(C)(COC(N)=O)COC(=O)NC(C)C (configuration not stated) and report it.
// result 111

// query Look up vesicle binding response of CC(=O)Nc1cc([As](=O)(O)O)ccc1O and report it.
// result 170

// query Look up vesicle binding response of COP(=O)(OC)C(O)C(Cl)(Cl)Cl (configuration not stated) and report it.
// result 230

// query Look up vesicle binding response of CC12CN3CC(C)(CN(C1)C3c1cccs1)C2O (configuration not stated) and report it.
// result 976

// query Look up vesicle binding response of CCN(CC)CCOC(=O)C(O)(c1ccccc1)c1ccccc1 and report it.
// result 152

// query Look up vesicle binding response of CC[N+]1(C)CCCC(OC(=O)C(O)(c2ccccc2)c2ccccc2)C1 (configuration not stated) and report it.
// result 160

// query Look up vesicle binding response of C#C[C@]1(O)CC[C@H]2[C@@H]3CCC4=CC(=O)CC[C@]4(C)[C@H]3CC[C@@]21C and report it.
// result 255

// query Look up vesicle binding response of CC(Cc1ccccc1)NCC(=O)Nc1cc(N(C)C)nc2ccccc12 (configuration not stated) and report it.
// result 191

// query Look up vesicle binding response of NCCc1c[nH]c2ccc(F)cc12 and report it.
// result 77.4

// query Look up vesicle binding response of c1cnc2c(c1)ccc1ncccc12 and report it.
// result 165

// query Look up vesicle binding response of O=c1[nH]c2ccccc2n1CCCN1CCC(n2c(=O)[nH]c3cc(Cl)ccc32)CC1 and report it.
// result 240

// query Look up vesicle binding response of c1ccc2c3c([nH]c2c1)CNCC3 and report it.
// result 82.8

// query Look up vesicle binding response of COc1ccc(Cc2nccc3cc(OC)c(OC)cc23)cc1OC and report it.
// result 146

// query Look up vesicle binding response of CCOC(=O)c1cncn1C(C)c1ccccc1 (configuration not stated) and report it.
// result 404

// query Look up vesicle binding response of OC(c1ccccc1)(c1ccccc1)C1CCNCC1 and report it.
// result 322

// query Look up vesicle binding response of NNC(=O)c1ccc(Cl)cc1 and report it.
// result 114

// query Look up vesicle binding response of CN1[C@@H]2CC[C@H]1CC(OC(=O)C1C=Nc3ccccc31)C2 (some centres not stated) and report it.
// result 136

// query Look up vesicle binding response of CC(C)(C)C(O)C(Oc1ccc(Cl)cc1)n1cncn1 (configuration not stated) and report it.
// result 218

// query Look up vesicle binding response of O=C(CCCN1CCC2(CC1)C(=O)NCN2c1ccccc1)c1ccc(F)cc1 and report it.
// result 187

// query Look up vesicle binding response of C[C@H]1CCCC(=O)CCC/C=C/c2cc(O)cc(O)c2C(=O)O1 and report it.
// result 138

// query Look up vesicle binding response of COP(=S)(OC)SCN1C(=O)c2ccccc2C1=O and report it.
// result 194

// query Look up vesicle binding response of CC12CCC3C(CC=C4CC5(CCC43C)OCCO5)C1CCC2=O (configuration not stated) and report it.
// result 179

// query Look up vesicle binding response of O=C1CN=C(c2ccccc2F)c2cc(Cl)ccc2N1 and report it.
// result 272

// query Look up vesicle binding response of O=C1C=Cc2ccccc2C1=O and report it.
// result 71.6

// query Look up vesicle binding response of CC(C)(C)NCC(O)c1cc(Cl)c(N)c(Cl)c1 (configuration not stated) and report it.
// result 138

// query Look up vesicle binding response of CCN(CC)C(=O)N[C@H]1C[C@@H]2c3cccc4[nH]cc(c34)C[C@H]2N(C)C1 and report it.
// result 197

// query Look up vesicle binding response of C[N+]1(C)C2CCC1CC(OC(=O)C(CO)c1ccccc1)C2 (configuration not stated) and report it.
// result 233

// query Look up vesicle binding response of Cc1cc(Cl)ccc1OCC(=O)O and report it.
// result 188

// query Look up vesicle binding response of NCC1(c2ccc3c(c2)OCCO3)CCCC1 and report it.
// result 107

// query Look up vesicle binding response of C[C@]12CC[C@@H]3c4ccc(O)c(O)c4CC[C@H]3[C@@H]1CC[C@@H]2O and report it.
// result 107

* * *

Please go through the items and note down their inhibition.
Molecular target: Botulinum neurotoxin type A (Clostridium botulinum) (UniProt P0DPI0)
Sequence (P0DPI0 whole entry, looked up): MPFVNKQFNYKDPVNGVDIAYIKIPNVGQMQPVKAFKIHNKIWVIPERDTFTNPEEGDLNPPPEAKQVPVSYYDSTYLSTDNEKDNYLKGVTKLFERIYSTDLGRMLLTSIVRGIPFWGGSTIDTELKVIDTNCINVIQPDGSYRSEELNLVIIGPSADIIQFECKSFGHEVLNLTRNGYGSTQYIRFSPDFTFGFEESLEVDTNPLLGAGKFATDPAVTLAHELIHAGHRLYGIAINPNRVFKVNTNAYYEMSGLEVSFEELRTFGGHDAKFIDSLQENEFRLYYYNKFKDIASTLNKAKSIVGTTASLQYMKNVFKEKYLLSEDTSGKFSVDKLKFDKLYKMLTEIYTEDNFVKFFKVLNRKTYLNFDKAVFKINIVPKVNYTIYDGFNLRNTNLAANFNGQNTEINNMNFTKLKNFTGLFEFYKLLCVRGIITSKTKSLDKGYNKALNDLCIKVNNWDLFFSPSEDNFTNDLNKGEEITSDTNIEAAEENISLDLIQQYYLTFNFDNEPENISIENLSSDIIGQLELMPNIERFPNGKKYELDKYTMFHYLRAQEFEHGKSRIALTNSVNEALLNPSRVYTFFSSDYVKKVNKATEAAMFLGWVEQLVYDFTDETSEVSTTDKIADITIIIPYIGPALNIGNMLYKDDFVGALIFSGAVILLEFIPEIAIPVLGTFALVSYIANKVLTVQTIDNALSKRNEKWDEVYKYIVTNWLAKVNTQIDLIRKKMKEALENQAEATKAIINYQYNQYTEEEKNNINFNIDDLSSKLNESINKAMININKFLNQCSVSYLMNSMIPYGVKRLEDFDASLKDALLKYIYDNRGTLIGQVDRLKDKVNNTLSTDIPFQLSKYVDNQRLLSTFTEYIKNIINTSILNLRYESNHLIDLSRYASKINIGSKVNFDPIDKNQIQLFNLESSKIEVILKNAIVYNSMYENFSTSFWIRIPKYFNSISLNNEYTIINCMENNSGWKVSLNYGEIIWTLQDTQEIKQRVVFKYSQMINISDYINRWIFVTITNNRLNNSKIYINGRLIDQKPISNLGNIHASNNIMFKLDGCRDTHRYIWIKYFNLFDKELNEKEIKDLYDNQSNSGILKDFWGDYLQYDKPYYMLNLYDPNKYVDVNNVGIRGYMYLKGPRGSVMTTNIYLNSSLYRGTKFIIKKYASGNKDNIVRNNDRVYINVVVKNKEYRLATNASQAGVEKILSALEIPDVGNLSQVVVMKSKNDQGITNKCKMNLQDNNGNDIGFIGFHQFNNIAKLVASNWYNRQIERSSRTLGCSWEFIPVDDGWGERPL
Test: BoNT/A light chain protease inhibitors, biochemical, multiplex microsphere flow cytometry, validation set (AID 588460)
Details: at 10 µM, active compounds read high
# output: bare number, implied unit %

// query Look up inhibition of CCCC[N+]1(C)[C@@H]2CC(OC(=O)[C@H](CO)c3ccccc3)C[C@H]1[C@@H]1O[C@@H]12 (some centres undefined) and report it.
// result 0.2

// query Look up inhibition of CC(C)CC(NC(=O)CNC(=O)C1O[C@@H]2OC(C)(C)O[C@@H]2[C@H]2OC(C)(C)O[C@@H]12)C(=O)O (some centres undefined) and report it.
// result -2

// query Look up inhibition of Cc1oc2c(CN3CCCC3)c(O)ccc2c(=O)c1-c1ccc(Cl)cc1 and report it.
// result -0.3

// query Look up inhibition of COP(=S)(OC)SCN1C(=O)c2ccccc2C1=O and report it.
// result -0.5

* * *

Target: AP-2 complex subunit beta (Homo sapiens)
Test: inhibitors of arrestin peptide binding to AP2, pilot screen, biochemical, validation set, GST-AP2 beads, flow cytometry (AID 504541);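 further: AP2 carries R879A mutation and is captured from E. coli lysate; bead-bound FITC arrestin peptide fluorescence measuring arrestin peptide binding to AP2; 0% = DMSO wells and 100% = excess unlabeled arrestin peptide control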
Conditions: FITC arrestin peptide, at 10 µM, active compounds read high
measured-metric: inhibition (%)
# output: bare number, implied unit %

// query Look up inhibition of CC(=O)Nc1cc([As](=O)(O)O)ccc1O and report it.
// result -6.36

// query Look up inhibition of C[C@H](O)[C@H]1CC[C@H]2[C@@H]3CCC4=CC(=O)CC[C@]4(C)[C@H]3CC[C@]12C and report it.
// result -3.68

// query Look up inhibition of Cc1cc(Cl)ccc1OC(C)C(=O)O (stereo not given) and report it.
// result 0.4

// query Look up inhibition of c1ccc2c(c1)Nc1ccccc1S2 and report it.
// result 9.01

// query Look up inhibition of OCc1cnc[nH]1 and report it.
// result 3.29

* * *

Assay: yeast V-ATPase proton transport modulators, S. cerevisiae, pHLuorin, HTS validation (AID 504600);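 further: plate controls were DMSO for no effect and reference compound for full effect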
Conditions: S. cerevisiae pHLuorin cytosolic pH, at 10 µM
Activity calls are given as the source filed them. Rule as the data show it: active = response above about 15%; inactive = the rest. Peptide text beside a SMILES is read from it.
Please answer using one outcome listed in active, inactive

// query Status in this test for Cc1c2ccncc2c(C)c2c1[nH]c1ccccc12 ?
// result inactive

// query Status in this test for C[N+]1(C)CCN(c2ccccc2)CC1 ?
// result inactive

// query Status in this test for C[N+]1(C)[C@@H]2CC[C@H]1CC(OC(=O)C(CO)c1ccccc1)C2 (some centres not stated) ?
// result inactive

// query Status in this test for CC12CCC3C(CC=C4CC(O)CCC43C)C1C/C(=C\c1cccc(F)c1)C2=O (configuration not stated) ?
// result inactive

// query Status in this test for COc1cc(/C=C2\C(=O)NC(=O)N(c3ccccc3)C2=O)c([N+](=O)[O-])cc1OC ?
// result inactive

// query Status in this test for C[C@]12CC[C@@H]3c4ccc(O)c(O)c4CC[C@H]3[C@@H]1CC[C@@H]2O ?
// result inactive

// query Status in this test for CCC(COC(=O)c1cc(OC)c(OC)c(OC)c1)(c1ccccc1)N(C)C (configuration not stated) ?
// result inactive

// query Status in this test for CN[C@H](C)[C@H](O)c1ccccc1 ?
// result inactive

// query Status in this test for c1ccc2c(c1)[nH]c1cnccc12 ?
// result inactive

// query Status in this test for CC12CCC3C(CC=C4CC5(CCC43C)OCCO5)C1CCC2=O (configuration not stated) ?
// result inactive

// query Status in this test for NCC1(c2ccc3c(c2)OCCO3)CCCC1 ?
// result inactive

// query Status in this test for CC(C)C[C@H](NC(=O)[C@@H]1CCCN1C(=O)[C@@H](N)Cc1ccc(O)cc1)C(=O)NCC(N)=O (H-YPLG-NH2) ?
// result inactive

// query Status in this test for COc1ccc(OC)c([C@@H](O)[C@H](C)NC(C)(C)C)c1 ?
// result inactive

// query Status in this test for Cc1ccc(/C=C2/C(=O)NC(=O)N(C)C2=O)cc1 ?
// result inactive

// query Status in this test for CC12CC[C@H]3[C@@H](CCC4(O)C[C@H](O)CCC34/C=N/NC(=O)Cc3ccccc3)C1(O)CCC2C1=CC(=O)OC1 (some centres not stated) ?
// result inactive

// query Status in this test for COP(=S)(OC)SCN1C(=O)c2ccccc2C1=O ?
// result inactive

// query Status in this test for O=C1NC(=O)C2(Cc3ccccc3N3CCCC32)C(=O)N1c1ccc(Cl)cc1 (configuration not stated) ?
// result inactive

// query Status in this test for Cc1cc(Cl)ccc1OC(C)C(=O)O (configuration not stated) ?
// result inactive

// query Status in this test for Cc1nc2ccccc2c(=O)n1-c1ccc(C(=O)O)cc1 ?
// result inactive

// query Status in this test for C[C@@H]1O[C@@H](O[C@H]2C[C@@H](O)[C@]3(CO)[C@H]4[C@H](O)C[C@]5(C)[C@@H](C6COC(=O)C6)CC[C@]5(O)[C@@H]4CC[C@]3(O)C2)[C@H](O)[C@H](O)[C@H]1O (some centres not stated) ?
// result inactive

// query Status in this test for O=C1CCCC2=C1C(c1cccnc1)Nc1ccccc1N2 (configuration not stated) ?
// result inactive

// query Status in this test for COc1ccc(-c2nc3ccccc3c(=O)o2)cc1 ?
// result inactive

// query Status in this test for CN1C(=O)N(C)C(=O)C2(Cc3ccccc3N3CCOCC32)C1=O (configuration not stated) ?
// result inactive

// query Status in this test for C[C@]12CCC(=O)C=C1CCC1C2CC[C@@]2(C)C1CC[C@@]2(O)CC#N (some centres not stated) ?
// result inactive

// query Status in this test for S=C1NCCN1 ?
// result inactive

// query Status in this test for CCN(CC)CCOC(=O)C(O)(c1ccccc1)c1ccccc1 ?
// result inactive

// query Status in this test for COC1=CC(=O)OC(/C=C/c2ccccc2)C1 (configuration not stated) ?
// result inactive

// query Status in this test for C[N+]1(C)C2CCC1CC(OC(=O)C(CO)c1ccccc1)C2 (configuration not stated) ?
// result inactive

// query Status in this test for Cc1ccc(-n2c(C)cc(/C=C3/C(=O)NC(=O)N(C)C3=O)c2C)cc1 ?
// result inactive

// query Status in this test for O=c1[nH]c2ccccc2n1C1CCN(CCCC(c2ccc(F)cc2)c2ccc(F)cc2)CC1 ?
// result active

// query Status in this test for CC/C(=C\C=C\[C@@H]1C=C[C@@H]2CCC[C@H]2[C@@H]1C(=O)c1ccc[nH]1)[C@@H]1O[C@@H]([C@@H](C)C(=O)O)CC[C@@H]1C ?
// result inactive

// query Status in this test for Clc1ccc(C2NCCc3[nH]cnc32)cc1 (configuration not stated) ?
// result inactive
